target: Nuclear receptor coactivator 2 (Homo sapiens) (UniProt Q15596); test: SRC2 coactivator transcriptional activity inhibitors, confirmation, cell-based, luminescence, HEK293, triplicate (AID 652008); conditions: HEK293 GAL4-SRC2 luciferase reporter, at 8.9 µM, active compounds read high
Sequence (Q15596 whole entry, looked up, the tested form may be a part): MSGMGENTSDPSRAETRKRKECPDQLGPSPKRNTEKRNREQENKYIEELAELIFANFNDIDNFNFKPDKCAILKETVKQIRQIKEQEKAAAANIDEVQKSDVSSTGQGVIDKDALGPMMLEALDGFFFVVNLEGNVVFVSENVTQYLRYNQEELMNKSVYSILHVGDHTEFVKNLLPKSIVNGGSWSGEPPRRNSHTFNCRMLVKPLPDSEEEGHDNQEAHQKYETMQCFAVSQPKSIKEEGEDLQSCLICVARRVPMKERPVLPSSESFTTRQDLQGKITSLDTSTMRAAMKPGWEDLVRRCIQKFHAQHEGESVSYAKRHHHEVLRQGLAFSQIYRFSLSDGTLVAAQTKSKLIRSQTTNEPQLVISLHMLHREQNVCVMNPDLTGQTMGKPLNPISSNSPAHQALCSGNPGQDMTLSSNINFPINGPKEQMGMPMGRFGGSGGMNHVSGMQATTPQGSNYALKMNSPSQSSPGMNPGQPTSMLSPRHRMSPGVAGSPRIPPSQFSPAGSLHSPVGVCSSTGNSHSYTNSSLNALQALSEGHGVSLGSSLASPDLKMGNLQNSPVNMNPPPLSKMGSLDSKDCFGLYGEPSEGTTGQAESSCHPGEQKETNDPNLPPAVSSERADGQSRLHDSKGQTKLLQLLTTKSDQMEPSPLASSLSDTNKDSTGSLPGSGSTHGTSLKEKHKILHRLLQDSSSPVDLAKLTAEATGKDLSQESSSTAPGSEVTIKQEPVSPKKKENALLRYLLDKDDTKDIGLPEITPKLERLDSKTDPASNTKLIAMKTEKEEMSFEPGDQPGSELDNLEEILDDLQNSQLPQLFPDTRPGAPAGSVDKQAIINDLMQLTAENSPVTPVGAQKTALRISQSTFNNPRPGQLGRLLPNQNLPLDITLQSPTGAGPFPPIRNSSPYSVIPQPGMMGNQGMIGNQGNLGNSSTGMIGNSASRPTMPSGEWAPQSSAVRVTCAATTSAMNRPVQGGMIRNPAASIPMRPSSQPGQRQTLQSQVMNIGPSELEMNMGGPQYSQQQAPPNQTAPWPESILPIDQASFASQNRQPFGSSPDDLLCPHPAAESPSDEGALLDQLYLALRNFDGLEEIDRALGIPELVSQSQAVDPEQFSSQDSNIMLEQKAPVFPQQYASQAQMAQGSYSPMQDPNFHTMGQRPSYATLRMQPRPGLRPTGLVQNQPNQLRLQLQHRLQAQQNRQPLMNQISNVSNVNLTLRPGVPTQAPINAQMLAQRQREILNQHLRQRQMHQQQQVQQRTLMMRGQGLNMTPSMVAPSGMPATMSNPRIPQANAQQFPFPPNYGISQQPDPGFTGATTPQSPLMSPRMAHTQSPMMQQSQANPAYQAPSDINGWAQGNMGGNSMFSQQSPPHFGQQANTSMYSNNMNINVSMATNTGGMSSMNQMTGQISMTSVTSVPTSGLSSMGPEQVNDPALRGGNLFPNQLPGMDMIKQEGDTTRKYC
Would you mind labelling by inhibition? At or over 60% is yes, under is no.

CCCc1nc(SCC(=O)Nc2cc(C)on2)c2ccccc2n1 : no

Given the entry `NC(=S)N1OC[C@@H]2COc3ccc4ccccc4c3[C@@H]21` , answer whether its inhibition meets or surpasses 60%.
no

Can you check `O=C(CCCCl)NC(=S)Nc1cc(C(F)(F)F)ccc1N1CCOCC1` next?
no
